test system: 843782-103-R-J1-PDC complex spheroid viability; assay: Anticancer human tumor 843782-103-R-J1-PDC patient-derived lung adenocarcinoma cell line growth inhibition [RAS]; conditions: second compound 0.003 µM; first compound 3.16 µM; stronger effect = lower value
REPORTED METRIC: viability, T/C (%)
Your answer is read as %, so omit the unit and give the number.

[in] # viability, T/C lookup, item CC(C)NCC(C(=O)N1CCN(c2ncnc3c2C(C)CC3O)CC1)c1ccc(Cl)cc1 (centres undefined) + CCn1c(-c2cccnc2C(C)OC)c2c3cc(ccc31)N1CCOC(CC(NC(=O)C(C(C)C)N(C)C(=O)C3(F)CCN(C(=O)C#CC(C)(C)N(C)C)CC3)C(=O)N3CCCC(N3)C(=O)OCC(C)(C)C2)C1
[out] 12.4

[in] Then CC(C)NCC(C(=O)N1CCN(c2ncnc3c2C(C)CC3O)CC1)c1ccc(Cl)cc1 (centres undefined) + CCn1c(-c2cc(N3CCN(C)CC3)cnc2C(C)OC)c2c3cc(ccc31)-c1csc(n1)CC(NC(=O)C1CC1C)C(=O)N1CCCC(N1)C(=O)OCC(C)(C)C2 ?
[out] 10.7

[in] Then Cc1nc(N2CCC3(CC2)COC(C)C3N)c(CO)nc1Sc1ccnc(N)c1Cl (centres undefined) + CCn1c(-c2cc(N3CCN(C)CC3)cnc2C(C)OC)c2c3cc(ccc31)-c1csc(n1)CC(NC(=O)C1CC1C)C(=O)N1CCCC(N1)C(=O)OCC(C)(C)C2 ?
[out] 19.4

[in] Then NC1c2ccccc2OC12CCN(c1cnc3c(N4CCCc5ncccc54)n[nH]c3n1)CC2 (centres undefined) + CCn1c(-c2cccnc2C(C)OC)c2c3cc(ccc31)N1CCOC(CC(NC(=O)C(C(C)C)N(C)C(=O)C3(F)CCN(C(=O)C#CC(C)(C)N(C)C)CC3)C(=O)N3CCCC(N3)C(=O)OCC(C)(C)C2)C1 ?
[out] 15.2

###

tested on: 843782-103-R-J1-PDC complex spheroid viability; test: Anticancer human tumor 843782-103-R-J1-PDC cell line growth inhibition [RAS]; conditions: curve of first compound; second compound 0.01 µM;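 also: viability read after seven days of compound exposure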
REPORTED METRIC: IC50 (nM)
Your answer is read as nM, so omit the unit and give the number.

>>> reported_result("CC(C)NCC(C(=O)N1CCN(c2ncnc3c2C(C)CC3O)CC1)c1ccc(Cl)cc1 (stereo not drawn) + C=CC(=O)N1CCN(c2nc(OCC3CCCN3C)nc3c(F)c(-c4nc(N)cc(C)c4C(F)(F)F)c(Cl)cc23)C(C)C1")
711

// switching to the query compound
[in] # IC50 lookup, item CC(Nc1ccc2c(c1)OCCn1cc(N3C(=O)OCC3C(F)F)nc1-2)C(N)=O (stereo not drawn) + C=CC(=O)N1CCN(c2nc(OCC3CCCN3C)nc3c(F)c(-c4nc(N)cc(C)c4C(F)(F)F)c(Cl)cc23)C(C)C1
[out] 93.6

###

test system: 843782-103-R-J1-PDC complex spheroid viability; test: Anticancer human tumor 843782-103-R-J1-PDC cell line growth inhibition [RAS]; conditions: second compound 0.003 µM; first compound 1 µM; stronger effect = lower value;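 also: viability read after seven days of compound exposure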
Assign classes using reported viability, T/C values and the ranges lowest = under 20%, middle = from 20% up to 30%, highest = 30% and over, please.

These solved cases illustrate the format of a correct answer.
>>> assigned_category("CCC(CC)c1cc(NC2CCC(N)C2)n2nccc2n1 (stereo not given) + CCn1c(-c2cc(N3CCN(C)CC3)cnc2C(C)OC)c2c3cc(ccc31)-c1csc(n1)CC(NC(=O)C1CC1C)C(=O)N1CCCC(N1)C(=O)OCC(C)(C)C2")
"highest"
>>> assigned_category("CC1(O)CCCC1n1c(=O)c(C(F)F)cc2cnc(NC3CCN(S(C)(=O)=O)CC3)nc21 (stereo not given) + CCn1c(-c2cc(N3CCN(C)CC3)cnc2C(C)OC)c2c3cc(ccc31)-c1csc(n1)CC(NC(=O)C1CC1C)C(=O)N1CCCC(N1)C(=O)OCC(C)(C)C2")
"lowest"
>>> assigned_category("C=CC(=O)N1CCN(c2nc(OCC3CCCN3C)nc3c(F)c(-c4nc(N)cc(C)c4C(F)(F)F)c(Cl)cc23)C(C)C1 (stereo not given) + CCn1c(-c2cccnc2C(C)OC)c2c3cc(ccc31)N1CCOC(CC(NC(=O)C(C(C)C)N(C)C(=O)C3(F)CCN(C(=O)C#CC(C)(C)N(C)C)CC3)C(=O)N3CCCC(N3)C(=O)OCC(C)(C)C2)C1")
"highest"
>>> assigned_category("NC1c2ccccc2OC12CCN(c1cnc3c(N4CCCc5ncccc54)n[nH]c3n1)CC2 (stereo not given) + CCn1c(-c2cc(N3CCN(C)CC3)cnc2C(C)OC)c2c3cc(ccc31)-c1csc(n1)CC(NC(=O)C1CC1C)C(=O)N1CCCC(N1)C(=O)OCC(C)(C)C2")
"lowest"

[in] In plain terms, what class is Cc1nc(N2CCC3(CC2)COC(C)C3N)c(CO)nc1Sc1ccnc(N)c1Cl (stereo not given) + CCn1c(-c2cccnc2C(C)OC)c2c3cc(ccc31)N1CCOC(CC(NC(=O)C(C(C)C)N(C)C(=O)C3(F)CCN(C(=O)C#CC(C)(C)N(C)C)CC3)C(=O)N3CCCC(N3)C(=O)OCC(C)(C)C2)C1 ?
[out] middle

[in] Then O=C(c1ccc(F)c(F)c1Nc1ccc(I)cc1F)N1CC(O)([C@@H]2CCCCN2)C1 + CCn1c(-c2cc(N3CCN(C)CC3)cnc2C(C)OC)c2c3cc(ccc31)-c1csc(n1)CC(NC(=O)C1CC1C)C(=O)N1CCCC(N1)C(=O)OCC(C)(C)C2 ?
[out] lowest

[in] Then Cc1nc(N2CCC3(CC2)COC(C)C3N)c(CO)nc1Sc1ccnc(N)c1Cl (stereo not given) + CCn1c(-c2cc(N3CCN(C)CC3)cnc2C(C)OC)c2c3cc(ccc31)-c1csc(n1)CC(NC(=O)C1CC1C)C(=O)N1CCCC(N1)C(=O)OCC(C)(C)C2 ?
[out] middle

###

system: 843782-103-R-J1-PDC complex spheroid viability; assay: Anticancer human tumor 843782-103-R-J1-PDC cell line growth inhibition [RAS]; conditions: second compound 0.00316 µM; first compound 0.0316 µM; stronger effect = lower value;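 also: viability read after seven days of compound exposure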
REPORTED METRIC: viability, T/C

>>> reported_result("CC(C)NCC(C(=O)N1CCN(c2ncnc3c2C(C)CC3O)CC1)c1ccc(Cl)cc1 (stereo not drawn) + C=CC(=O)N1CCN(c2nc(OCC3CCCN3C)nc3c(F)c(-c4nc(N)cc(C)c4C(F)(F)F)c(Cl)cc23)C(C)C1")
"91.6%"
>>> reported_result("CCN1CCN(Cc2ccc(Nc3ncc(F)c(-c4cc(F)c5nc(C)n(C(C)C)c5c4)n3)nc2)CC1 + C=CC(=O)N1CCN(c2nc(OCC3CCCN3C)nc3c(F)c(-c4nc(N)cc(C)c4C(F)(F)F)c(Cl)cc23)C(C)C1")
"88.5%"

// switching to the query compound
[in] # viability, T/C lookup, item C[C@@H](NC(=O)c1ncnc(N)c1Cl)c1ncc(C(=O)Nc2cc(C(F)(F)F)c(Cl)cn2)s1 + C=CC(=O)N1CCN(c2nc(OCC3CCCN3C)nc3c(F)c(-c4nc(N)cc(C)c4C(F)(F)F)c(Cl)cc23)C(C)C1
[out] 92.2%

###

system: 843782-103-R-J1-PDC complex spheroid viability; experiment: Anticancer human tumor 843782-103-R-J1-PDC cell line growth inhibition [RAS]; details: curve of first compound; second compound 0.3 µM;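 also: viability read after seven days of compound exposure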
REPORTED METRIC: IC50

>>> reported_result("NC1c2ccccc2OC12CCN(c1cnc3c(N4CCCc5ncccc54)n[nH]c3n1)CC2 (stereo not drawn) + CCn1c(-c2cc(N3CCN(C)CC3)cnc2C(C)OC)c2c3cc(ccc31)-c1csc(n1)CC(NC(=O)C1CC1C)C(=O)N1CCCC(N1)C(=O)OCC(C)(C)C2")
"< 31.6 nM"
>>> reported_result("CC1(C)CCC(Nc2ncc(C(F)(F)F)c(-c3c[nH]c4c(P(C)(C)=O)c(C#N)ccc34)n2)CN1 (stereo not drawn) + CCn1c(-c2cc(N3CCN(C)CC3)cnc2C(C)OC)c2c3cc(ccc31)-c1csc(n1)CC(NC(=O)C1CC1C)C(=O)N1CCCC(N1)C(=O)OCC(C)(C)C2")
"< 0.949 nM"

// switching to the query compound
[in] # IC50 lookup, item CC(=O)OC12COC1CC(O)C1(C)C(=O)C(O)C3=C(C)C(OC(=O)C(O)C(NC(=O)OC(C)(C)C)c4ccccc4)CC(O)(C(OC(=O)c4ccccc4)C21)C3(C)C (stereo not drawn) + CCn1c(-c2cccnc2C(C)OC)c2c3cc(ccc31)N1CCOC(CC(NC(=O)C(C(C)C)N(C)C(=O)C3(F)CCN(C(=O)C#CC(C)(C)N(C)C)CC3)C(=O)N3CCCC(N3)C(=O)OCC(C)(C)C2)C1
[out] < 31.6 nM
